# target.desc: T1, human MCAM (melanoma cell adhesion molecule) expressed on transfected CHO cells (human, UniProt P43121 24-646)
# T1 construct: also called hMCAM; CD146
# T1 chain: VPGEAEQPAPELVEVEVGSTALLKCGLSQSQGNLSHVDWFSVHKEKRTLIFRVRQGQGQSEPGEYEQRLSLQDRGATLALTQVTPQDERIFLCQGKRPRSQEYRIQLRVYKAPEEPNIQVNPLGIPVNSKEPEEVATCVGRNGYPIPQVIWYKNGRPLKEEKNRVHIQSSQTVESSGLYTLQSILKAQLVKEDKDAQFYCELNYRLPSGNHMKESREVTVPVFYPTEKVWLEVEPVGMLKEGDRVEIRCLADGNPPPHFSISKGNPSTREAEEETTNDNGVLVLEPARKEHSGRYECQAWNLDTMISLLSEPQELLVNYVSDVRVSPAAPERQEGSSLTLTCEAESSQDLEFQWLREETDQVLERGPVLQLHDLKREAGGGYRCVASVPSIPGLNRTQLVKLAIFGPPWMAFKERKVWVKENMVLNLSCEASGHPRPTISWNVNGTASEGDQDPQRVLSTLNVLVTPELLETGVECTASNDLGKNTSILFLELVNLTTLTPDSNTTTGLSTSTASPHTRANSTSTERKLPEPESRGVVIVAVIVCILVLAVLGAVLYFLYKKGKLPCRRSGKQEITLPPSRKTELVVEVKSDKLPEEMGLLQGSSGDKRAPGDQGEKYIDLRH
# method.summary: laminin/FACS on hMCAM CHO cells, competitor laminin 411; Expt#1; vs rodent 2120
Quick reference for fold over rodent (blocking, laminin/FACS) among some binders
Answer format: numeric, fold implied, no suffix.

{"columns": ["binder", "unit.of.measurement", "quantitative.readout"],
 "data": [
  ["h2120_VH1 + h2120_VL1 (antibody, human IgG1, V domains shown) VH: QVTLKESGPVLVKPTETLTLTCTVSGFSLTSNGVSWVRQPPGKALEWIAAISSGGTTYYNSAFKSRLTISRDTSKSQVVLTMTNMDPVDTATYYCARRYGYGWYFDFWGQGTLVTVSS VL: DIQMTQSPSSLSASVGDRVTITCKASQNIYNSLAWYQQKPGKAPKVLIFNANSLQTGIPSRFSGSGSGTDFTLTISSLQPEDFATYYCQQFYSGYTFGQGTKLEIK", "fold", 2]
]}

Input: Look up fold over rodent (blocking, laminin/FACS) for this binder: h2120_VH5 + h2120_VL3 (antibody, human IgG1, V domains shown, also called h2120VH5VL3; VH5VL3) VH: QVTLKESGPVLVKPTETLTLTCTVSGFSLTSNAVSWVRQPPGKALEWIAAISSGGTTYYNSAFKSRLTISRDTSKSQVVLTMTNMDPVDTATYYCARRYGYGWYFDFWGQGTLVTVSS VL: DIQMTQSPSSLSASVGDRVTINCKASQNIYNSLAWYQQKPGKAPKVLIFNANSLQTGIPSRFSGSGSGTDFTLTISSLQPEDFATYYCQQFYSGYTFGQGTKLEIK
Output: 1.2

Input: I have this binder here, h2120_VH1 + h2120_VL2 (antibody, human IgG1, V domains shown) VH: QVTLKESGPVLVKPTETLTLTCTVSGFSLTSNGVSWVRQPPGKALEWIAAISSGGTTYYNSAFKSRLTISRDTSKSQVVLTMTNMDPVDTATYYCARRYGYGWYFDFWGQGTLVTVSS VL: DIQMTQSPSSLSASVGDRVTITCKASQNIYNSLAWYQQKPGKAPKVLIFNANSLQTGVPSRFSGSGSGTDFTLTISSLQPEDFATYYCQQFYSGYTFGQGTKLEIK , and I need its recorded fold over rodent (blocking, laminin/FACS).
Output: 4.6

Input: What fold over rodent (blocking, laminin/FACS) value was documented for this binder, h2120_VH1 + h2120_VL3 (antibody, human IgG1, V domains shown) VH: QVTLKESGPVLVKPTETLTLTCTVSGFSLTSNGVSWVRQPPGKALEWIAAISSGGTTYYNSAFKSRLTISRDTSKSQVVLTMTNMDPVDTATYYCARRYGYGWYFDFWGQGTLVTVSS VL: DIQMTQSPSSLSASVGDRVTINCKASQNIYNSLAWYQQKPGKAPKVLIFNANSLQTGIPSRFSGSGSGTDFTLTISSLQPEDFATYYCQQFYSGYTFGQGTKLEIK ?
Output: 1.7

Input: # lookup: fold over rodent (blocking, laminin/FACS) of h2120_VH4 + h2120_VL3 (antibody, human IgG1, V domains shown) VH: QVTLKESGPVLVKPTETLTLTCTVSGFSLTSQGVSWVRQPPGKALEWIAAISSGGTTYYNSAFKSRLTISRDTSKSQVVLTMTNMDPVDTATYYCARRYGYGWYFDFWGQGTLVTVSS VL: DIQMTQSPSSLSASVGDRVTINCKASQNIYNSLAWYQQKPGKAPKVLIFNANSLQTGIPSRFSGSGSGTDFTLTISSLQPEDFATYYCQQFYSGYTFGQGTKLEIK
Output: 3.8
